Ref: patent US20240116946A1

Recorded IC50, one value per entry.
biological target: recombinant SARS-CoV-2 Main protease (Mpro) (Severe acute respiratory syndrome coronavirus 2 (2019-nCoV) (SARS-CoV-2)); test: Cov Mpro Biochemical IC50 Assay; conditions: recombinant SARS-CoV-2 Mpro 7.5 nM, fluorogenic peptide substrate 40 μM; read-out: MPro IC50

{"Molecule": "COc1ccc(C#N)c(-c2cc3[nH]c(=O)n(-c4cncc5ccc(OC)cc45)c(=O)c3s2)c1", "Value comparator": "=", "IC50, nM": 7.68}
{"Molecule": "COc1ccc(C#N)c(-c2cc3[nH]c(=O)n(-c4cncc5c4CCCO5)c(=O)c3s2)c1", "Value comparator": "=", "IC50, nM": 29.6}
{"Molecule": "COc1ccc(Cl)c(-c2cc3[nH]c(=O)n(-c4cncc5c4OCCC5)c(=O)c3s2)c1", "Value comparator": "=", "IC50, nM": 26.2}
{"Molecule": "COc1cc(-c2cc3c(s2)c(=O)n(-c2cncc4[nH]nc(C)c24)c(=O)n3CCC#N)c(Cl)cc1F (single isomer, unassigned) [Example 959]", "Value comparator": "=", "IC50, nM": 5.11}
{"Molecule": "Cc1cn(C)nc1-c1cccc(Cl)c1-c1cc2[nH]c(=O)n(-c3cncc4ccccc34)c(=O)c2s1", "Value comparator": "=", "IC50, nM": 10.9}
{"Molecule": "COc1cc(-c2cc3c(s2)c(=O)n(-c2cncc4cnn(C)c24)c(=O)n3CCC#N)c(C)cc1Cl", "Value comparator": "=", "IC50, nM": 15}
{"Molecule": "COc1cc(-c2cc3c(s2)c(=O)n(-c2cncc4cnn(C)c24)c(=O)n3CC#N)c(Cl)cc1F (single isomer, unassigned) [Example 1013]", "Value comparator": "=", "IC50, nM": 1.42}
{"Molecule": "COc1cc(-c2cc3c(s2)c(=O)n(-c2cncc4ccccc24)c(=O)n3CCCC#N)c(Cl)cc1F", "Value comparator": "=", "IC50, nM": 17.6}
{"Molecule": "Cc1nc2cncc(-n3c(=O)c4sc(-c5cc(F)c(F)cc5Cl)cc4n(CCC#N)c3=O)c2n1C", "Value comparator": "=", "IC50, nM": 39.4}
{"Molecule": "COc1ccc(Cl)c(-c2ccc3c(=O)n(-c4cncc5ccc(N6CC7(COCCO7)C6)cc45)c(=O)[nH]c3c2)c1", "Value comparator": "=", "IC50, nM": 10.8}
{"Molecule": "Cn1ncc2cncc(-n3c(=O)c4sc(-c5cc(F)c(F)cc5Cl)cc4n(CCC#N)c3=O)c21 (single isomer, unassigned) [Example 1077]", "Value comparator": "=", "IC50, nM": 485}
{"Molecule": "CS(=O)(=O)N1CC2(CN(c3ccc4cncc(-n5c(=O)[nH]c6cc(-c7ccccc7Cl)sc6c5=O)c4c3)C2)C1", "Value comparator": "=", "IC50, nM": 11.3}
{"Molecule": "COc1cc(-c2cc3[nH]c(=O)n(-c4cncc5ccsc45)c(=O)c3s2)c(Cl)cc1F", "Value comparator": "<", "IC50, nM": 2.54}
{"Molecule": "COc1cc(-c2cc3c(s2)c(=O)n(-c2nncc4ccccc24)c(=O)n3CCC#N)c(Cl)cc1F", "Value comparator": "=", "IC50, nM": 5.72}
